- Tested on: OVCAR-3 ovarian
- Measurement Notes: NCI tumour cell line growth inhibition, 48 h
Measured Parameter: TGI

1) O=C(CC(=O)C1=CNc2ccccc2S1)C(=O)Nc1ccc(Cl)cc1; > 50 µM
2) Cc1c(N2C(=O)CS(=O)(=O)C2c2cccc(Oc3ccccc3)c2)c(=O)n(-c2ccccc2)n1C (stereo not given); > 100 µM
3) c1ccc(CN2CCC3(CC2)SSC2(CCN(Cc4ccccc4)CC2)S3)cc1; > 100 µM
4) O=c1ccn(C2CC(O)C(CO)O2)c(=O)[nH]1 (stereo not given); > 5000 µM
5) Cn1c(O)c(C=Nc2ccccc2[N+](=O)[O-])c(=O)n(C)c1=O; > 100 µM
